The entries below come with measured melting point values attached.

Please look up its melting point: CCN1C(=O)CCC(C)(C)c2cc(Nc3ncc(Cl)c(Nc4ccc(N5CCOCC5)cc4OC)n3)ccc21 255 °C

* * *

Recorded Metric: melting point

Example cases with answers are listed next.
[[record]]
compound = "Oc1ccc(Oc2ccc(Cl)cc2)cc1"
recorded_metric = "melting point"
result_value = "85 to 86 °C"

[[record]]
compound = "CCC(=O)Cc1ccc(C(=O)Nc2ccc3cc(C(C)N4CCCC4)cnc3c2C)cc1 (stereo not given)"
recorded_metric = "melting point"
result_value = "123 to 127 °C"

[[record]]
compound = "Cc1c2c(c(Oc3ccc(C(C)C)cc3)c(C)c1NC(=O)CC(C)(C)C)OC(C)(C)C2"
recorded_metric = "melting point"
result_value = "148 to 149 °C"

[[record]]
compound = "COc1ccc(NC(C)=S)cc1C"
recorded_metric = "melting point"
result_value = "88.5 to 89 °C"


// moving on: another record for melting point
Please look up its melting point: CCCCOC(Cc1ccc(OCCN2c3ccccc3Oc3ccccc32)cc1)C(=O)O (stereo not given) 84 to 88 °C
